molecular target: T1, hPD-1-his (human, UniProt Q15116 25-167); experiment: ELISA, hPD-1-his on anti-his
T1 construct: domain: IgV domain; monomer in solution; biotin-labelled where captured by streptavidin; also called biotin-hPD-1-his
T1 sequence (Q15116 other isoform, or with tags, fused parts or gaps limits assumed): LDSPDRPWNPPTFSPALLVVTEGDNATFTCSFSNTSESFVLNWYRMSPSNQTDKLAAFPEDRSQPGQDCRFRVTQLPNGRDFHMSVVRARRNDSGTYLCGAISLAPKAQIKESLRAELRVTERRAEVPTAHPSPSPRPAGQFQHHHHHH
endpoint-name: pEC50
Scale: negative log10 of molar concentration, which is what pEC50 denotes.

Tell me pEC50 reported for 31B1 (antibody, V domains shown, also called 780_38; 33B1 and 31B2 (apparent misprints)) VH: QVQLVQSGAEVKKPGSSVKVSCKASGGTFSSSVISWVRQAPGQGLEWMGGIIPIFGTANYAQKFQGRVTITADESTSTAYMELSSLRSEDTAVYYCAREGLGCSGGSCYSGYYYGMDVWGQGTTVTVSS VL: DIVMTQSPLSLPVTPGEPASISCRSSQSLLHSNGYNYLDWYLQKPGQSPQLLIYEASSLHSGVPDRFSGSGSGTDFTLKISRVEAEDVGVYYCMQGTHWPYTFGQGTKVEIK 10.02
